Below, each entry is listed alongside its reported pIC50.
# Measurement target: JAK3 (Homo sapiens)
# Construct: endogenous in cells; mixed Molt4/Ramos lysate 1:2
# Sequence (P52333 whole entry): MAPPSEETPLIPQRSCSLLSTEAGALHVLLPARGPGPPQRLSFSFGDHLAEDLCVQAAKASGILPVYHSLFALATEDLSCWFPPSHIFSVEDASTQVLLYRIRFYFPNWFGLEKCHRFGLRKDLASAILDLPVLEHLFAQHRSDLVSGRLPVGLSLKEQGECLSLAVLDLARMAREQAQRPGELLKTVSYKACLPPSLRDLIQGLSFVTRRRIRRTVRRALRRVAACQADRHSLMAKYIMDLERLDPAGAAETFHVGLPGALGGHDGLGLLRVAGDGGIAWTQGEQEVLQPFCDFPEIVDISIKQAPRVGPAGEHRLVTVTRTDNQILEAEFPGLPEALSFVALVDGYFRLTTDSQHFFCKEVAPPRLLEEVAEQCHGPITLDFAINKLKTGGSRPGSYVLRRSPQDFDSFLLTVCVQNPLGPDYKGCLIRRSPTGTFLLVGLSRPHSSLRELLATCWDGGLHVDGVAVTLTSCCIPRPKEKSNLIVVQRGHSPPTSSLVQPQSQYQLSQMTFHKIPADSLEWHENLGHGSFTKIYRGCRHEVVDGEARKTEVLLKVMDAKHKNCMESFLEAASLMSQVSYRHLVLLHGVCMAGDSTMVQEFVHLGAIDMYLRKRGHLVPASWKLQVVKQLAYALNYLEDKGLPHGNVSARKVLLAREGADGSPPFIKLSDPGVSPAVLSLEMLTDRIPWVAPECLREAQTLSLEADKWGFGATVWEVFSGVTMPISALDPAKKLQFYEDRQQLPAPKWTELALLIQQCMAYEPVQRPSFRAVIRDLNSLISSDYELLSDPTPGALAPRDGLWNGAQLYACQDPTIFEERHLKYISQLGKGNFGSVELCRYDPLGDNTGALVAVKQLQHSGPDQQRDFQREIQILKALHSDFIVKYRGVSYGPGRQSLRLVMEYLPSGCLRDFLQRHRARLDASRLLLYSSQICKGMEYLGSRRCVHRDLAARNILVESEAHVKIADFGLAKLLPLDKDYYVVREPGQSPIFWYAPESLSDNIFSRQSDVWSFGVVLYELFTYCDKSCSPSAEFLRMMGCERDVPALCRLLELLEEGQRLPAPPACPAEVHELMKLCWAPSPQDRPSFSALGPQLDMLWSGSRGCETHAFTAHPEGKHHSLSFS
# Assay details: Kinobeads assay, JAK3 (competition binding in cell lysate, dot blot detection)
# Recorded conditions: mixed Molt4/Ramos lysate
pIC50: −log10 of the molar value.

Compound	pIC50
Cn1cc(Nc2ncc3cnn(CC4CCN(S(C)(=O)=O)C4)c3n2)cn1 (stereo not drawn)	6.00 to 7.00
Cn1cc(Nc2ncc3cnn(CC4CCCN(CCC#N)C4)c3n2)cn1 (stereo not drawn)	> 7.00
Cn1cc(Nc2ncc3cnn(CC4CCCN(CC#N)C4)c3n2)cn1 (stereo not drawn)	> 7.00
N#CCCN1CCCC(Cn2ncc3cnc(Nc4cnn(CC(F)F)c4)nc32)C1 (stereo not drawn)	> 7.00
CCS(=O)(=O)N1CCC(Cn2ncc3cnc(Nc4cnn(C)c4)nc32)C1 (stereo not drawn)	6.00 to 7.00
CCS(=O)(=O)N1CCCC(Cn2ncc3cnc(Nc4cnn(C)c4)nc32)C1 (stereo not drawn)	> 7.00
Cn1cc(Nc2ncc3cnn(CC4CCNC4)c3n2)cn1 (stereo not drawn)	6.00 to 7.00
Cn1cc(Nc2ncc3cnn(C4CCCCC4)c3n2)cn1	6.00 to 7.00
Cn1cc(Nc2ncc3cnn(CC4CN(CCC#N)C4)c3n2)cn1	6.00 to 7.00
C[C@H]1CCCC[C@@H]1n1ncc2cnc(Nc3cnn(CCO)c3)nc21 (racemic)	> 7.00
CC1CCCC(n2ncc3cnc(Nc4cnn(C)c4)nc32)C1 (stereo not drawn)	6.00 to 7.00
Cn1cc(Nc2ncc3cnn(CCC4CCCN(S(C)(=O)=O)C4)c3n2)cn1 (stereo not drawn)	6.00 to 7.00
